Tested on: 885724-159-R-J1-PDC KRAS PDC multicell spheroid viability;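 also: spheroids exposed to agents for 7 days before readout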
assay details: Anticancer human tumor 885724-159-R-J1-PDC patient-derived pancreatic adenocarcinoma cell line growth inhibition [KRAS2]
applied conditions: second compound 10 µM; first compound 1 µM; active compounds read low
// returns NOT MET unless viability, T/C is strictly below 40%, in which case MET

Solved entries (count: 4):
[[record]]
compound = "COC(=O)c1ccc2c(C(=Nc3ccc(N(C)C(=O)CN4CCN(C)CC4)cc3)c3ccccc3)c(O)[nH]c2c1 + COc1cc2nc(C)nc(NC(C)c3cc(N)cc(C(F)(F)F)c3)c2cc1OC1CCOC1"
group = "MET"

[[record]]
compound = "COc1cc(Nc2ncc3c(n2)-c2ccc(Cl)cc2C(c2c(F)cccc2OC)=NC3)ccc1C(=O)O + CC1OCC2(CCN(c3cnc(Sc4ccnc(N)c4Cl)c(N)n3)CC2)C1N"
group = "NOT MET"

[[record]]
compound = "CC(=O)OC12COC1CC(O)C1(C)C(=O)C(O)C3=C(C)C(OC(=O)C(O)C(NC(=O)OC(C)(C)C)c4ccccc4)CC(O)(C(OC(=O)c4ccccc4)C21)C3(C)C (stereo not given) + C=CC(=O)N1CCN(c2nc(=O)n(-c3c(C)ccnc3C(C)C)c3nc(-c4c(O)cccc4F)c(F)cc23)C(C)C1"
group = "NOT MET"

[[record]]
compound = "CC(=O)OC12COC1CC(O)C1(C)C(=O)C(O)C3=C(C)C(OC(=O)C(O)C(NC(=O)OC(C)(C)C)c4ccccc4)CC(O)(C(OC(=O)c4ccccc4)C21)C3(C)C (stereo not given) + CC1OCC2(CCN(c3cnc(Sc4ccnc(N)c4Cl)c(N)n3)CC2)C1N"
group = "NOT MET"


Query compound follows.
Check if viability, T/C falls below 40% for CCNC(=O)CC1N=C(c2ccc(Cl)cc2)c2cc(OC)ccc2-n2c(C)nnc21 (stereo not given) + C=CC(=O)N1CCN(c2nc(=O)n(-c3c(C)ccnc3C(C)C)c3nc(-c4c(O)cccc4F)c(F)cc23)C(C)C1 . NOT MET
